Quick reference: pKd of the listed items.
molecular target: BmLARK (Bombyx mori (cDNA from Bm12 cells), UniProt Q5I7M6 1-343); assay: MST
Recall that pKd is obtained by taking minus log10 of the concentration measured in molar.

- binder: "GCGAGGGCGGGGGAGAGGGGAGGGGCGCG (structured_DNA) [HIF-1a G4]"
  pKd: 6.88
- binder: "GGCGGGGGCGGGGGGACGGGGCGGGGGGGGCGG (structured_DNA) [159 G4]"
  pKd: 6.94
- binder: "GGGTCGCGGGGCCACGGGGGGCGGGGCGGGGGCCGCG (structured_DNA) [142 G4]"
  pKd: 6.97
- binder: "GGTACGGGGGTGCAGGGGCGGCGGGGGGCGCGGGGTGG (structured_DNA) [558 G4]"
  pKd: 6.92
- binder: "TTATGGGGAGGGTGGGGAGGGTGGGGAAGG (structured_DNA) [c-MYC G4]"
  pKd: 6.57

[Q] Please report the recorded pKd for TTTTTCGGGCGGGCGCGAGGGAGGGG (structured_DNA) [c-kit G4] .
[A] 6.90

[Q] Any idea what its pKd is? The binder is CCAGTGCGGGGCGCGAGGGGGCCGAGGGGCGGGGCAACAA (structured_DNA) [BmPOUM2 G4]
[A] 6.96

Every entry's value here was drawn from paper PMC6698653.
